FYI, the data here is from ChEMBL document CHEMBL5236590.

targetOrTestSystem: Cyclin-dependent kinase 3 (Homo sapiens, UniProt Q00526)
Sequence (Q00526 whole entry): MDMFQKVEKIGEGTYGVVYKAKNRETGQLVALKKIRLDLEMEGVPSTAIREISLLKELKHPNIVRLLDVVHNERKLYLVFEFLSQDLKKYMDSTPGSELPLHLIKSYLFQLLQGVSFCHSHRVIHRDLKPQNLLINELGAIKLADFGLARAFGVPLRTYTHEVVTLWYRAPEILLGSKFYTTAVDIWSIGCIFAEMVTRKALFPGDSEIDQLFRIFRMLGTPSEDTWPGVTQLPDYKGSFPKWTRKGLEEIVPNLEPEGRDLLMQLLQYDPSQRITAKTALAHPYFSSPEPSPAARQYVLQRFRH
readoutName: IC50 (nM)
Return type: number; implicit unit nM.

Task: Give reported IC50 for C=CC(=O)Nc1ccc(C(=O)Nc2n[nH]c3ccc(-c4cncc(NC[C@@H](O)c5ccccc5)c4)cc23)cc1 (Cyclin-dependent kinase 3 (Homo sapiens, UniProt Q00526))
Result: 1840

---

assaySummary: Efflux ratio of apparent permeability in human Caco-2 cells after 120 mins by LC-MS/MS analysis
Type: ADME, cell-based
readoutName: efflux ratio at 2 h

Task: Provide efflux ratio at 2 h value for the following molecule: C=CC(=O)Nc1ccc(C(=O)Nc2n[nH]c3ccc(-c4cncc(NC[C@@H](O)c5ccccc5)c4)cc23)cc1
Result: > 48
